- assayedTarget: Grb2 SH2 (UniProt P62993)
- Sequence (P62993 whole entry, looked up): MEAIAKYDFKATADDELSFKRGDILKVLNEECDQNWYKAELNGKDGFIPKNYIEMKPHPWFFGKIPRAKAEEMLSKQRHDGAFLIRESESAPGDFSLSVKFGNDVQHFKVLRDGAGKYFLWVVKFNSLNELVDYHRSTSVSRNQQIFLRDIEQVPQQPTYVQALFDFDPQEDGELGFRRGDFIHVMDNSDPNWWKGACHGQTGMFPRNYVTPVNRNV
- method: SH2 binding enrichment of the phosphorylated peptide, bacterial display (enrichment ratio); higher = better substrate or ligand; peptides without Tyr show the background
Use 0.9 as the dividing line for SH2 binding enrichment, with the line itself on the rule met side and lower values as rule not met.

# check: SH2 binding enrichment of YASALYRQRRS [FGF11_Y162] is greater than or equal to 0.9
rule not met

Record RMETAYGPSVT [MXRA5_Y2717_E2716A] ; criterion: SH2 binding enrichment no lower than 0.9. Met?
rule not met

// inclusive: SH2 binding enrichment at least 0.9? input: TLMNAYSSRCH [KIF11_Y231_S235C]
rule met

Check if SH2 binding enrichment >= 0.9 (inclusive). Item: ASYGPYTRVQS [FOXL2_Y258]
rule not met

Please check the record RTLSEYARPHV [RERE_Y1259] and state if its SH2 binding enrichment is at or above 0.9.
rule not met

Form field: SH2 binding enrichment at least 0.9? Entry: EPDSLYGCGRG [ATM_Y2019_G2023R]
rule met

Has HNLDFYKETTN [FGFR3_Y648_K650E_YF] a recorded SH2 binding enrichment greater than or equal to 0.9?
rule not met

Hi team, for HGEAVYSRDCV [XPC_Y676_R671H] , is the recorded SH2 binding enrichment at or above 0.9?
rule met

Identify whether the reported SH2 binding enrichment of the following sequence is 0.9 or greater: RGFDTYFGYLL [ARSB_Y165]
rule met

// inclusive: SH2 binding enrichment at least 0.9? input: DYYDLYGGEKL [PTPN11_Y66_F71L]
rule not met

Please tell me: is the sequence KDHPDYKFQPR [SOX10_Y171_YF] at or over 0.9 in terms of SH2 binding enrichment?
rule met

* * *

- assayedTarget: EPHB2 (UniProt P29323)
- Sequence (P29323 whole entry, looked up): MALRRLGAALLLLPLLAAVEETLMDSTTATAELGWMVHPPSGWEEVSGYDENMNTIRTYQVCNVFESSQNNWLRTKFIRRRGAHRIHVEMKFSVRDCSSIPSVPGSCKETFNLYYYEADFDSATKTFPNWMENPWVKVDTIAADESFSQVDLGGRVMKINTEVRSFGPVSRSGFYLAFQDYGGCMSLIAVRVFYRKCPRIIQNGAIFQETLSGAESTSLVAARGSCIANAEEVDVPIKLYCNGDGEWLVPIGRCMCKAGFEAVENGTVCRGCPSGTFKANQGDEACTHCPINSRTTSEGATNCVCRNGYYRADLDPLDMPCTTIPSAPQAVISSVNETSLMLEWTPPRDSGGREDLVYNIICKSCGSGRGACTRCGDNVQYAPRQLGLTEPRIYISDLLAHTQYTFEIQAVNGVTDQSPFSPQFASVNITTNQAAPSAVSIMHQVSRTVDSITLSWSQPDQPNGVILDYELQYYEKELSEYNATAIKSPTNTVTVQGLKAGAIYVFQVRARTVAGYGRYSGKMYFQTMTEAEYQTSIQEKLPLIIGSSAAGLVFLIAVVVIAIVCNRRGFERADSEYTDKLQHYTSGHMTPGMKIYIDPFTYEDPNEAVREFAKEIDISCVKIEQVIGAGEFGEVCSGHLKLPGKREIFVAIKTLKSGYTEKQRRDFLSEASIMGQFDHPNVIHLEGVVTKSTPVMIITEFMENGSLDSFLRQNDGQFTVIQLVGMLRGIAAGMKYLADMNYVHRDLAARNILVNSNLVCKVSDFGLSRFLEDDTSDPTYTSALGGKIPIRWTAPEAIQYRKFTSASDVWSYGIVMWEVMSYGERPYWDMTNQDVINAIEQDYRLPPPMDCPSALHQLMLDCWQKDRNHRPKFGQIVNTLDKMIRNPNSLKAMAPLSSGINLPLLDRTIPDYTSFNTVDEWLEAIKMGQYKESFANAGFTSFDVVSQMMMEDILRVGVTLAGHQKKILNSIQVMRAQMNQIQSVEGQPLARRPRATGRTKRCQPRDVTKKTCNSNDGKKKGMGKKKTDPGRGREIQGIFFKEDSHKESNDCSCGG
- method: phosphorylation enrichment, bacterial display (enrichment ratio); higher = better substrate or ligand; peptides without Tyr show the background
assayEndpoint: phosphorylation enrichment
The answer should be a number; do not append a unit.

Need phosphorylation enrichment, item HKGASYVFRLS [PTPRD_Y891]
0.791

Recorded phosphorylation enrichment for KGVDRYNPENL [EIF3K_Y21_I18V] , please?
0.648

I would be grateful if you could share the reported phosphorylation enrichment for KRISCYEASYQ [PFKFB3_Y194] .
0.484

// query phosphorylation enrichment value for entry RETLTYAQAQR [BRD1_Y33]
0.478

What measured phosphorylation enrichment goes with MGGSVYFSYPD [HIKESHI_Y55] ?
0.815

Look at this sequence and give its reported phosphorylation enrichment. HEEDNYIEMIP [NWD2_Y566_L569M]
1.19

Fill blank: measured phosphorylation enrichment of the sequence KDQGGYTMHQD [MAPT_Y29] is ____.
0.456

What phosphorylation enrichment value was documented for this sequence, FDDDDYDTDFV [BLM_Y296] ?
0.549

Consider the sequence FSKDIYKRVTG [PANK2_Y405_N404I_YF] and give its measured phosphorylation enrichment.
0.382

Quick check: phosphorylation enrichment of RPSRQYATLDV [SCAMP3_Y35] ?
0.33

Item APGDAYGDAGF [SYP_Y250_YF] has what recorded phosphorylation enrichment?
0.548

Would you mind telling me what phosphorylation enrichment value was observed for GHNDVYILEHV [GRIN2A_Y1423_S1425L] ?
0.518

Form field: reported phosphorylation enrichment of EASEQHLTKAS [NRCAM_Y739_Y739H]
0.496

Any idea what its phosphorylation enrichment is? The sequence is NTDETYSIDNE [TUBB2B_Y200_C201S]
0.632

Entry PLQNTYNYNVL [SLC4A1_Y553_K551N] : reported phosphorylation enrichment = ?
1.6

I am curious: what phosphorylation enrichment value has been reported for LWPIWYRCRRP [MRGPRX1_Y130_H133R] ?
0.49

Dear colleague, I am looking for the recorded phosphorylation enrichment of the following sequence: VKYGAYINDFK [GLB1_Y488_N484K]
0.46

Need phosphorylation enrichment, item NKVQFYIPDMN [NCR1_Y84_K82Q]
0.533

Returns the measured phosphorylation enrichment for the input sequence. Input: TVLEPYTDPFF [ZC3H18_Y367_A368T_YF]
0.429

Suppose we examine the sequence RGDCMYAPLLG [AR_Y269] ; what phosphorylation enrichment value has been reported?
8.4

So what's the measured phosphorylation enrichment for this one? FQKNSYSEELR [LMNA_Y211_I210S]
0.342

Please report the recorded phosphorylation enrichment for FLRKEYGGLNV [CBR3_Y81] .
0.519

Quick one: phosphorylation enrichment of LEIETYPRLLD [KRT12_Y429_R430P] ?
0.953

If you can, please state the reported phosphorylation enrichment value of GRRGQYVMPSE [TTC7A_Y396_L399P] .
0.481

Field request: phosphorylation enrichment | item: EFKKHYGFSLF [ANXA3_Y295_YF]
0.509

Give the measured phosphorylation enrichment of SSDKVYAHQMV [MLH1_Y379] .
0.401

Look up phosphorylation enrichment for this sequence: LVVFEYMRHGD [NTRK1_Y591_M587V]
0.556

Consider the sequence TPIYPYLLPKS [PLD2_Y580_T577I] and give its measured phosphorylation enrichment.
0.559

Fill blank: measured phosphorylation enrichment of the sequence CTLLPYYSAPV [DGKE_Y269_R273P] is ____.
2.29

Name the reported phosphorylation enrichment value associated with the sequence RRFLFYFSFLL [PTEN_Y177_V175L_YF]
0.608

Tell me the measured phosphorylation enrichment of HDKEFYSVHNK [MET_Y1235_Y1230H_YF] , please.
0.643

// returns reported phosphorylation enrichment for input EREFKYGAHNF [OAT_Y50_YF]
0.375

Given GIVKAYFVRAR [AIPL1_Y267_YF] , state its recorded phosphorylation enrichment.
0.434

Give its phosphorylation enrichment value. Item: GYEEAYSVFKK [PAFAH1B1_Y28]
0.605

Would you kindly share the measured phosphorylation enrichment for RRVLVYVGRGA [QDPR_Y16_G17V] ?
0.858

Item SHMVDYQPFRK [TEX37_Y25_YF] has what recorded phosphorylation enrichment?
0.445

// returns reported phosphorylation enrichment for input SILAVYSKDNY [PANK2_Y400]
0.486

So what does the record say about phosphorylation enrichment for QEGPEYWDQNT [HLA-A_Y83_E87N] ?
0.719

Endpoint output: phosphorylation enrichment of IYRASYVPFAA [RBM47_Y541_G538R] . Value?
0.571

// returns reported phosphorylation enrichment for input KAIMTYVPSFF [ACTN4_Y260_S262P_YF]
0.531

Which phosphorylation enrichment value is on record for FRPPFYHRDCM [HGD_Y334_N337D_YF] ?
0.659

Would you kindly share the measured phosphorylation enrichment for NVGGKYSYLKV [GRM3_Y478] ?
0.39

Recorded phosphorylation enrichment for RGKDSYETSQL [SPP1_Y225] , please?
0.529

Please report the recorded phosphorylation enrichment for NYYDTCIKTCL [IQGAP2_Y1445_Y1445C] .
2.32

Look up phosphorylation enrichment for this sequence: VQEDIYDEFVE [ALDH2_Y332]
0.715

So what's the measured phosphorylation enrichment for this one? SGIFQYNIAKF [FOXL2_Y83_I84N_YF]
0.541

Returns the measured phosphorylation enrichment for the input sequence. Input: FPRAWYRRSIA [KIAA1109_Y4272]
0.468

Endpoint output: phosphorylation enrichment of ALAHKYQGGGG [HBB_Y146_H147Q] . Value?
0.436

Given the entry DGLALYTGSAL [COL6A3_Y524_S521L] , report its measured phosphorylation enrichment.
0.936

Look up phosphorylation enrichment for this sequence: KKLAEYGPQGR [CLCA1_Y147]
0.366

Tell me the measured phosphorylation enrichment of YDEYRYRSVIK [CFTR_Y517] , please.
0.589

Could you share which phosphorylation enrichment value was measured for RSFLSYYTSHV [NEFL_Y442_P440L] ?
0.761

Give the measured phosphorylation enrichment of YLEKYYKFGCR [NNMT_Y25_S29C] .
0.588

Entry under review: GIVEEYQLPYY [BMPR1A_Y453] . Reported phosphorylation enrichment?
0.642

For TRNVRYLTLDI [AKR1C2_Y305_N300T] , what is its reported phosphorylation enrichment?
0.521

Could you tell me which phosphorylation enrichment is on file for METKGYHSLPE [NR3C2_Y6] ?
0.367

// phosphorylation enrichment lookup, key: INMKEYCKKDF [NTN1_Y490_K489E_YF]
0.678

Consider the sequence WQLEIYRASRP [ERCC4_Y594_R589W] and give its measured phosphorylation enrichment.
0.628
